# kon listing for each entry below
biological target: Recombinant human his-tagged IGF 1R extracellular domain protein (human) (UniProt P08069); experiment: SPR, captured IgG, IGF-1R ECD-his analyte, dissociation pH 6
Could you give me the number in M⁻¹ s⁻¹? Just the number is fine.

As a guide, the following entries are already answered.
binder="VRDN-02571 (antibody, V domains shown) VH: EVQLVQSGGGLVKPGGSLRLSCAASGFTFSSFAMHWVRQAPGKGLEWISVIHTRGATYYADSVKGRFTISRDNAKNSLYLQMNSLRAEDTAVYYCARLGNFYYGHDVWGQGTTVTVSS VL: EIVLTQSPGTLSVSPGERATLSCRASQSIGSSLHWYQQKPGQAPRLLIKHASQSLSGIPDRFSGSGSGTDFTLTISRLEPEDFAVYYCHQSSRLPHTFGQGTKVEIK" reported=160000
binder="VRDN-02522 (antibody, V domains shown) VH: EVQLVQSGGGLVKPGGSLRLSCAASGFTFSSFAMHWVRQAPGKGLEWISVIDTRGATYYADSVKGRFTISRDNAKNSLYLQMNSLRAEDTAVYYCARLGNFHYGMDVWGQGTTVTVSS VL: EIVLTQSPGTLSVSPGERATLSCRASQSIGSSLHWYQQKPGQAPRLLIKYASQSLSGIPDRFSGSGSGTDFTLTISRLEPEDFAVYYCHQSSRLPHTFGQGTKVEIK" reported=26600
binder="VRDN-02561 (antibody, V domains shown) VH: EVQLVQSGGGLVKPGGSLRLSCAASGFTFSSFHMHWVRQAPGKGLEWISVIDTRGATYYADSVKGRFTISRDNAKNSLYLQMNSLRAEDTAVYYCARLGNFYYGHDVWGQGTTVTVSS VL: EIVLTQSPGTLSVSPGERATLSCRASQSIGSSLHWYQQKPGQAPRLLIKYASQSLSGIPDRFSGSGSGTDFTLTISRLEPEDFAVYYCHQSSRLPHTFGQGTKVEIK" reported=329000
binder="VRDN-02554 (antibody, V domains shown) VH: EVQLVQSGGGLVKPGGSLRLSCAASGFTFSSFAMHWVRQAPGKGLEWISVIHTRGATYYADSVKGRFTISRDNAKNSLYLQMNSLRAEDTAVYYCARLGNFYYGMDVWGQGTTVTVSS VL: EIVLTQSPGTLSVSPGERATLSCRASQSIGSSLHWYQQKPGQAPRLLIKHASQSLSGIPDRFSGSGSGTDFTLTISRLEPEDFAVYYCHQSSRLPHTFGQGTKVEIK" reported=99500

Now for another entry.
Need kon of VRDN-02526 (antibody, V domains shown) VH: EVQLVQSGGGLVKPGGSLRLSCAASGFTFSSFAMHWVRQAPGKGLEWISVIDTRGATYYADSVKGRFTISRDNAKNSLYLQMNSLRAEDTAVYYCARLGNFYYGMHVWGQGTTVTVSS VL: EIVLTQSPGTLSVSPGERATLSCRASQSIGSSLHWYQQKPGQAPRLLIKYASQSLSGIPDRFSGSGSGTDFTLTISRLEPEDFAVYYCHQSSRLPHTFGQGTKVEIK , thanks.
36600
